method: self-splicing fitness, log relative to wild type (ln ratio); higher = more splicing; Tetrahymena group I intron in knt gene, E. coli kanamycin selection, DiMSum; sequences stand for … in CUCUCU…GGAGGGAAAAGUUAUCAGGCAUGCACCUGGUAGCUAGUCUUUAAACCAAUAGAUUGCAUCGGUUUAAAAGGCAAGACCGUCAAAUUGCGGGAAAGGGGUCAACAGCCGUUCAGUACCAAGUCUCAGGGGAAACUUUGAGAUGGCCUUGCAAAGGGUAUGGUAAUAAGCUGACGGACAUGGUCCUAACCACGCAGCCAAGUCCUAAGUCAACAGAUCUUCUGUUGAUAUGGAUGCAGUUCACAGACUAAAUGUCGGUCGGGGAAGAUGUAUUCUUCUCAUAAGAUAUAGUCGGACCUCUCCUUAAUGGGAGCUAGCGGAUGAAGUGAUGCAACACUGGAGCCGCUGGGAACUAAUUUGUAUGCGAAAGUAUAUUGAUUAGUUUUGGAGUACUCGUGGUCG;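 also: selection with 25 µg/mL kanamycin versus none on LB agar overnight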
condition: 30 °C
quantityMeasured: self-splicing fitness (ln)
Give a plain numeric answer without units written out.

Would you please look over these solved cases?
Incoming: For the sequence shown here, ACGUAGCAAUAUUACGCGGU , give the reported self-splicing fitness (ln).
Outgoing: -3.63

Incoming: Which self-splicing fitness (ln) is listed for UCCUAGCAAUAUUACGAGUU ?
Outgoing: -3.71

Incoming: Could you share which self-splicing fitness (ln) value was measured for CUUUAGCAAUAUUACGAGCA ?
Outgoing: -3.14

New cases:
Incoming: Given the entry CCAUAGCAAUAUUACGCUAG , report its measured self-splicing fitness (ln).
Outgoing: -3.8

Incoming: I am curious: what self-splicing fitness (ln) value has been reported for CCUGAGCAAUAUUACGAAUU ?
Outgoing: -2.96

Incoming: Consider the sequence AUAAAGCAAUAUUACGAAGC and give its measured self-splicing fitness (ln).
Outgoing: -4.43

Incoming: Using the record for GUCAAGCAAUAUUACGUACA , report its self-splicing fitness (ln).
Outgoing: -3.13

Incoming: Field request: self-splicing fitness (ln) | item: GCAGAGCAAUAUUACGUAUA
Outgoing: -1.41

Incoming: Give the measured self-splicing fitness (ln) of GUGAAGCAAUAUUACGUGUC .
Outgoing: -2.89

Incoming: Item AAGUAGCAAUAUUACGUCCC has what recorded self-splicing fitness (ln)?
Outgoing: -0.0634

Incoming: Give the measured self-splicing fitness (ln) of UAGGAGCAAUAUUACGCCUA .
Outgoing: -3.16

Incoming: Item under review: GUAGAGCAAUAUUACGGCGU . Reported self-splicing fitness (ln)?
Outgoing: -0.532

Incoming: What measured self-splicing fitness (ln) goes with AUCCAGCAAUAUUACGCUUA ?
Outgoing: -0.592

###

method: self-splicing fitness, log relative to wild type (ln ratio); higher = more splicing; Tetrahymena group I intron in knt gene, E. coli kanamycin selection, DiMSum; sequences stand for … in CUCUCU…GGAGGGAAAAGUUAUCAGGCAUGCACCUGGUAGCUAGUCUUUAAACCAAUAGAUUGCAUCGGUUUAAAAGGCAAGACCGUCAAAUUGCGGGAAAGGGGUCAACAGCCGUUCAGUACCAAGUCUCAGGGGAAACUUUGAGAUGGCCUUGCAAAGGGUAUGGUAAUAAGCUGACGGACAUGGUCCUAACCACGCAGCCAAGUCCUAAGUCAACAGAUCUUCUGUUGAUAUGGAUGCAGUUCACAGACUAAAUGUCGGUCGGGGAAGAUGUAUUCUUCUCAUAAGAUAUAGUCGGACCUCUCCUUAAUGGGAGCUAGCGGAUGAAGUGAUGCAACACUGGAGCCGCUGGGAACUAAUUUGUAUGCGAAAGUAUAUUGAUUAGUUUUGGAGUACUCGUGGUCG
condition: 37 °C
Outcome label depends on self-splicing fitness (ln) relative to -1: at/above gives 1 (yes), below gives 0 (no).

Would you please look over these solved cases?
Incoming: API: above_or_equal(metric=self-splicing fitness (ln), cutoff=-1) for item CUCUAGCAAUAUUACGGCGC
Outgoing: 0 (no)

Incoming: Does ACCCAGCAAUAUUACGAUUC have a reported self-splicing fitness (ln) of at least -1?
Outgoing: 1 (yes)

Incoming: Please indicate if the recorded self-splicing fitness (ln) for CAUGAGCAAUAUUACGGAUA meets or exceeds -1.
Outgoing: 0 (no)

Incoming: Exam item: decide whether the reported self-splicing fitness (ln) for AUAAAGCAAUAUUACGCGUU is at least -1.
Outgoing: 1 (yes)

Incoming: Is reported self-splicing fitness (ln) greater than or equal to -1 here: GCUGAGCAAUAUUACGCCUA
Outgoing: 1 (yes)

Incoming: Does self-splicing fitness (ln) meet or surpass -1 for UGGCAGCAAUAUUACGGGAC ?
Outgoing: 0 (no)

Incoming: Given GUGAAGCAAUAUUACGAGAC , state whether its self-splicing fitness (ln) is at least -1.
Outgoing: 1 (yes)

Next:
Incoming: I'd appreciate it if you could say whether GUCCAGCAAUAUUACGAAAU has self-splicing fitness (ln) at least equal to -1.
Outgoing: 1 (yes)

FYI, the data here is from the supplement of paper PMC7877785.
